Measured values drawn from patent US20230374132A1 for this set.

# measuredTarget: T1, cynomolgus monkey CD3 E&D complex protein (Sino Biological Inc., CT032-00323H) (cynomolgus monkey, UniProt Q95LI5 22-117; Q95LI8 22-105)
# T1 construct: bought heterodimer
# T1 sequence (Q95LI5 22-117, chain 1 of 2): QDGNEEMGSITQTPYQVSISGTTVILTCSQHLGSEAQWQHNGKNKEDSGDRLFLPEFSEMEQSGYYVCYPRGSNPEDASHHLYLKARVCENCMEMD
# T1 sequence (Q95LI8 22-105, chain 2 of 2): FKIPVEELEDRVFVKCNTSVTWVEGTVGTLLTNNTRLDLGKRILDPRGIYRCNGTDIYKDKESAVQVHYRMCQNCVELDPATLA
# experimentalProtocol: BLI, antibody on sensor
metric: kon (M⁻¹ s⁻¹)
Provide the reading as a plain figure in M⁻¹ s⁻¹.

In the examples that follow, each entry is paired with its recorded kon.
binder	metric	unitAbbreviation	experimentalResult
hzsp34.17 (antibody, human IgG1, lambda, L234A L235A, V domains shown, IgG1 L234A L235A, lambda) VH: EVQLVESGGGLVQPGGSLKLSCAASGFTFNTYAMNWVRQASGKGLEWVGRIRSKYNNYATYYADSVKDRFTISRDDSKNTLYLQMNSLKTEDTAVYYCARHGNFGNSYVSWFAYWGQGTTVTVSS VL: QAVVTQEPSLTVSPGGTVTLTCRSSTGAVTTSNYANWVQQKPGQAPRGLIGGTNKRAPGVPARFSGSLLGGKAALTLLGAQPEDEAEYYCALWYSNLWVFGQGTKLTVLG	kon	M⁻¹ s⁻¹	1.78e+06
hzsp34.28 (antibody, human IgG1, kappa, L234A L235A, V domains shown, IgG1 L234A L235A, kappa) VH: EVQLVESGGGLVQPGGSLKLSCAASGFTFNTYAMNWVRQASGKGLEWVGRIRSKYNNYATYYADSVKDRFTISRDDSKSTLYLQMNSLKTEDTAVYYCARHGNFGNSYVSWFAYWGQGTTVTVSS VL: EIVMTQSPATLSVSPGERATLSCRSSTGAVTTSNYANWYQQKPGQAPRLLIYGTNKRAPGIPARFSGSGSGTEFTLTISSLQSEDFAVYYCALWYSNLWVFGQGTKLTVLR	kon	M⁻¹ s⁻¹	415000

Dear colleague, please send me the reported kon for hzsp34.7 (antibody, human IgG1, lambda, L234A L235A, V domains shown, IgG1 L234A L235A, lambda) VH: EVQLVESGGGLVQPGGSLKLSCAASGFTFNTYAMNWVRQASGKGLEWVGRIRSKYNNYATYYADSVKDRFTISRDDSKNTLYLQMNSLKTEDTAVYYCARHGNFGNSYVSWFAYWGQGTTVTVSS VL: QAVVTQEPSLTVSPGGTVTLTCRSSTGAVTTSNYANWFQQKPGQAPRTLIYGTNKRAPWTPARFSGSLLGGKAALTLLGAQPEDEAEYYCALWYSNLWVFGQGTKLTVLG when you can.
279000
